assay-system: Rap guanine nucleotide exchange factor 3 (Homo sapiens)
measurement-description: Counterscreen qHTS for antagonist of cAMP-regulated guanine nucleotide exchange factor 3 (EPAC1) (AID 1645888);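 also: fluorescence loss as bound BODIPY-GDP is released from Rap1B; % of control where 0% means no effect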
condition-info: Rap1B-BODIPY-GDP nucleotide exchange, fluorescence; series mostly up to 154 µM
Inconclusive results are not listed. Calls of active or inactive are those of the source. Calls follow the shape of the dose curve; as a rule, active = well fitted inhibition curve with a large enough effect; inconclusive = small, poorly fitted or top-dose-only effect; inactive = no such curve, though single readings can be large or run the other way.
assay-metric: activity change, negative = inhibition

Consider the worked cases shown below.
• COC(=O)C1=CC(C(=O)c2cccs2)=NN(c2ccc(OC)cc2)C1C(=O)OC (stereo not drawn) = -26% [at 30.8 µM] (inactive)
• COc1ccc(OC)c(C(=O)/C=C/c2ccccc2C(F)(F)F)c1 = inactive
• O=C1CCC([N+](=O)[O-])C(c2cccc3ccccc23)N1 (stereo not drawn) = -21.9% [at 30.8 µM] (inactive)
• Cc1[nH]c(=O)nc(SCc2cccc(Cl)c2)c1C#N = inactive
• O=C(N/N=C/c1ccc(Sc2ccccn2)o1)c1cc2ccccc2cc1O = inactive
• COC(=O)c1cc2sc(Cl)cc2n1Cc1cc(C)ccc1C = inactive

Attention now shifts to the item below.
[in] API: value(readout=activity change, negative = inhibition, system=Rap guanine nucleotide exchange factor 3 (Homo sapiens)) for record CCC(=O)N1N=C(c2cccs2)CC1c1ccc(C)cc1 (stereo not drawn)
[out] inactive

----------
measurement-description: Cell Viability - N2a (AID 540);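 also: cells exposed to compound for 40 h at 37 °C; plate controls were DMSO alone for no effect and tamoxifen control for full effect; nearly all actives have a fitted effect of over 45% in size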
condition-info: N2a mouse neuroblastoma cell viability; at 92.2 µM (top of the series)
Text: NIH Chemical Genomics Center [NCGC] NIH Molecular Libraries Screening Centers Network [MLSCN] National Institutes of Environmental Health Sciences [NIEHS] National Toxicology Program [NTP] We have developed a 1536-well cell-based assay for quantitative high throughput screening (qHTS) against a number of cell lines to determine in vitro cytotoxicity of small molecules. […] 8. Detection; Luminescence; Viewlux plate reader […]
Results filed as inconclusive are left out.
Reported activity change, negative = cytotoxicity values for a set of molecules
Report as a plain number; the unit % is understood.

Use the examples below as a reference point.
- Clc1cc(Cl)c(Cl)c(Cl)c1Cl: -10.3
- CCO[Si](CCCN)(OCC)OCC: -19
- C=Cc1ccccc1Cl: 1.46
- O=[N+]([O-])c1cccc(Cl)c1Cl: -3.99
- Cc1c(N=C=O)cccc1N=C=O: -2.52
- O=C(O)c1ccccc1: 6.89
- CCO: -0.0856
- O=C(O)CC(C(=O)O)C(CC(=O)O)C(=O)O (stereo not given): -8.87

[in] # query: activity change, negative = cytotoxicity of entry C[C@H](CCC(=O)O)[C@H]1CC[C@H]2[C@@H]3CC[C@@H]4C[C@H](O)CC[C@]4(C)[C@H]3CC[C@]12C
[out] 2.31

[in] Request the reported activity change, negative = cytotoxicity associated with C=CCOC(=O)c1ccccc1C(=O)OCC=C
[out] -8.09

[in] What does the data say about its activity change, negative = cytotoxicity? Entry: Cc1ccc([N+](=O)[O-])c(C)c1
[out] -14.6

[in] // query activity change, negative = cytotoxicity value for entry CC(=O)OC/C=C(\C)CCC=C(C)C
[out] -0.528

[in] Quick one: activity change, negative = cytotoxicity of CCCN(CCC)C(=O)SCC ?
[out] -0.642

[in] Field request: activity change, negative = cytotoxicity | item: c1ccc2scnc2c1
[out] -2.55

[in] # query: activity change, negative = cytotoxicity of entry CN(C)CCCCCCN(C)C
[out] 1.64
